These measurements were taken from ChEMBL document CHEMBL4043283.

Assay: AUC in BALB/c mouse at 10 mg/kg, po by LC-MS/MS analysis
Format: ADME, organism-based
Conditions: in vivo
quantity: AUC (µM·h)

1) CN1CC[C@H](c2c(O)cc(O)c3c(=O)cc(/C=C/c4c(Cl)cccc4Cl)oc23)[C@H](O)C1: 2.41

###

Molecular target: CDK2/Cyclin A2 (Homo sapiens) (UniProt P24941+P20248)
Assay: Inhibition of CDK2/cyclin A (unknown origin) at 0.5 uM using histone H1 as substrate after 30 mins in presence of [33P]-gamma-ATP by filter binding assay relative to control
Assay type: protein-complex assay
quantity: inhibition (%)

1. Cc1cc(=O)c2c(O)c(CN(C)CC(=O)O)c(O)c([C@H]3CCN(C)C[C@H]3O)c2o1: 0
2. Cc1cc(=O)c2c(O)c(CN(C(C)C)C(C)C)c(O)c([C@H]3CCN(C)C[C@H]3O)c2o1: 1
3. CN1CC[C@H](c2c(O)cc(O)c3c(=O)cc(/C=C/c4c(F)c(F)c(F)c(F)c4F)oc23)[C@H](O)C1: 42
4. CN1CC[C@H](c2c(O)cc(O)c3c(=O)cc(/C=C/c4cccc(F)c4)oc23)[C@H](O)C1: 53
5. Cc1cc(=O)c2c(O)c(CN3CCC(c4ccccc4)CC3)c(O)c([C@H]3CCN(C)C[C@H]3O)c2o1: 0
6. Cc1cc(=O)c2c(O)c(CN3CC(O)CC3C(=O)O)c(O)c([C@H]3CCN(C)C[C@H]3O)c2o1 (stereo partly drawn): 10
7. CCOc1ccc(Br)c(C(O)c2c(C)oc3c([C@H]4CCN(C)C[C@H]4O)c(O)cc(O)c3c2=O)c1 (stereo partly drawn): 0
8. Cc1cc(=O)c2c(O)c(CN3CCCCC3)c(O)c([C@H]3CCN(C)C[C@H]3O)c2o1: 10

###

Experiment: Half life in BALB/c mouse at 30 mg/kg, po by LC-MS/MS analysis
Format: ADME, organism-based
Conditions: in vivo
quantity: half-life (h)

1) CN1CC[C@H](c2c(O)cc(O)c3c(=O)cc(/C=C/c4c(Cl)cccc4Cl)oc23)[C@H](O)C1: 3.62

###

Assay: Half life in monkey liver S9 fraction preincubated for 5 mins followed by NADPH addition measured after 30 mins by LC-MS/MS analysis
Type: ADME, tissue-based, Macaca mulatta
Details: rhesus monkey
quantity: half-life (min)

1) CN1CC[C@H](c2c(O)cc(O)c3c(=O)cc(/C=C/c4c(Cl)cccc4Cl)oc23)[C@H](O)C1: 56

###

Experiment: Half life in Sprague-Dawley rat at 10 mg/kg, po by LC-MS/MS analysis
Format: ADME, organism-based
Settings: in vivo
quantity: half-life (h)

1. CN1CC[C@H](c2c(O)cc(O)c3c(=O)cc(/C=C/c4c(Cl)cccc4Cl)oc23)[C@H](O)C1: 5.16

###

Experiment: AUC (0 to t) in BALB/c mouse at 10 mg/kg, po by LC-MS/MS analysis
Assay type: ADME, organism-based
Conditions: in vivo
quantity: AUC(0-t)

1. CN1CC[C@H](c2c(O)cc(O)c3c(=O)cc(/C=C/c4c(Cl)cccc4Cl)oc23)[C@H](O)C1: 4.5 µM·h

###

Assay: Initial concentration in BALB/c mouse at 1 mg/kg, iv by LC-MS/MS analysis
Format: ADME, organism-based
Conditions: in vivo
quantity: C0 (ng/mL)

1. CN1CC[C@H](c2c(O)cc(O)c3c(=O)cc(/C=C/c4c(Cl)cccc4Cl)oc23)[C@H](O)C1: 859

###

System: Liver
Assay: Intrinsic clearance in rat liver S9 fraction assessed per mg of protein preincubated for 5 mins followed by NADPH addition measured after 30 mins by LC-MS/MS analysis
Type: ADME, tissue-based
Settings: s9, 0.5 h
quantity: CLint

1. CN1CC[C@H](c2c(O)cc(O)c3c(=O)cc(/C=C/c4c(Cl)cccc4Cl)oc23)[C@H](O)C1: 45 µL/min/mg

###

Experiment: Half life in human liver S9 fraction preincubated for 5 mins followed by NADPH addition measured after 30 mins by LC-MS/MS analysis
Type: ADME, tissue-based
quantity: half-life

1. CN1CC[C@H](c2c(O)cc(O)c3c(=O)cc(/C=C/c4c(Cl)cccc4Cl)oc23)[C@H](O)C1: 1.2 h

###

Experiment: Pancreas to plasma partition coefficient, Kp of the compound in Sprague-Dawley rat at 30 mg/kg, po measured at 8 hrs
Type: ADME, organism-based
Conditions: pancreas and plasma
quantity: Kp at 8 h

1. CN1CC[C@H](c2c(O)cc(O)c3c(=O)cc(/C=C/c4c(Cl)cccc4Cl)oc23)[C@H](O)C1: 10.5

###

Experiment: Efflux ratio of apparent permeability across basolateral to apical side over apical to basolateral side in human Caco2 cells after 90 mins by LC-MS/MS analysis
Format: ADME, cell-based
Conditions: Caco-2
quantity: efflux ratio at 1.5 h

1) CN1CC[C@H](c2c(O)cc(O)c3c(=O)cc(/C=C/c4c(Cl)cccc4Cl)oc23)[C@H](O)C1: 1.8

###

Assay: Volume of distribution at steady state in BALB/c mouse at 1 mg/kg, iv by LC-MS/MS analysis
Assay type: ADME, organism-based
Conditions: in vivo, read-out: Vdss
quantity: Vd (L/kg)

1. CN1CC[C@H](c2c(O)cc(O)c3c(=O)cc(/C=C/c4c(Cl)cccc4Cl)oc23)[C@H](O)C1: 14.1

###

Target: UniProt Q02156
Sequence (Q02156 whole entry): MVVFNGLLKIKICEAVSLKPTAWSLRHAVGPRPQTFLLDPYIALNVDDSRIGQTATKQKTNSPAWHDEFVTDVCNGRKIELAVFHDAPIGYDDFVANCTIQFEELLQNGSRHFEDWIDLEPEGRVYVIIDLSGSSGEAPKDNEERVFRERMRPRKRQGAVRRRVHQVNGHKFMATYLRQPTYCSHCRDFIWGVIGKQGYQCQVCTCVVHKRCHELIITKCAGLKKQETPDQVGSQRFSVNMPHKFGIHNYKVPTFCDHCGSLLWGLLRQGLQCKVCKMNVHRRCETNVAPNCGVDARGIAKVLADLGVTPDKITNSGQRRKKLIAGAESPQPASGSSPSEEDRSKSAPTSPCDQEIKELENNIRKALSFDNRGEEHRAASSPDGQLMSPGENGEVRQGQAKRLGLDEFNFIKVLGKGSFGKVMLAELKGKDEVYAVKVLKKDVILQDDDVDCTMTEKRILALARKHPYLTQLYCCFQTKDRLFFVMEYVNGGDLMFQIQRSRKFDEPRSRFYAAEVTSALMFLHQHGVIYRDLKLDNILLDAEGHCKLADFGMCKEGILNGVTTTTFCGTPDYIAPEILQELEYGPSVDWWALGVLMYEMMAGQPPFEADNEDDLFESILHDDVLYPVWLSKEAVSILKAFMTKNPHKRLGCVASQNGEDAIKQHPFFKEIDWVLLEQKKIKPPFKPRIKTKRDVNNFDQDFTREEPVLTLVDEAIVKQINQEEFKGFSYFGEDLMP
Test: Inhibition of partial length wild type human PRKCE expressed in mammalian expression system at 0.5 uM by KINOMEscan method relative to control
quantity: inhibition at 0.5 µM

1. CN1CC[C@H](c2c(O)cc(O)c3c(=O)cc(/C=C/c4c(Cl)cccc4Cl)oc23)[C@H](O)C1: > 98%

###

Tested on: MCF7
Assay: Growth inhibition of human MCF7 cells at 10 uM after 48 hrs by MTT assay relative to control
Format: functional
Settings: MCF7, 48 h, read-out: GI
quantity: inhibition of growth at 10 µM (%)

1. Cc1oc2c([C@H]3CCN(C)C[C@H]3O)c(O)cc(O)c2c(=O)c1C(O)c1cccc(Cl)c1 (some centres undefined): 5
2. Cc1oc2c([C@H]3CCN(C)C[C@H]3O)c(O)cc(O)c2c(=O)c1C(O)c1ccc(F)cc1 (some centres undefined): 9
3. CN1CC[C@H](c2c(O)cc(O)c3c(=O)cc(/C=C/c4ccc(Cl)cc4)oc23)[C@H](O)C1: 10
4. Cc1cc(=O)c2c(O)c(CN3CCN(C(=O)OC(C)(C)C)CC3)c(O)c([C@H]3CCN(C)C[C@H]3O)c2o1: 16
5. CN1CC[C@H](c2c(O)cc(O)c3c(=O)cc(/C=C/c4c5ccccc5cc5ccccc45)oc23)[C@H](O)C1: 78
6. COc1ccc(C(O)c2c(C)oc3c([C@H]4CCN(C)C[C@H]4O)c(O)cc(O)c3c2=O)cc1Br (some centres undefined): 41
7. Cc1oc2c([C@H]3CCN(C)C[C@H]3O)c(O)cc(O)c2c(=O)c1C(O)c1c(Cl)cccc1Cl (some centres undefined): 33
8. COc1ccc(COc2cc(O)c3c(=O)cc(C)oc3c2[C@H]2CCN(C)C[C@H]2O)cc1: 16
9. Cc1oc2c([C@H]3CCN(C)C[C@H]3O)c(O)cc(O)c2c(=O)c1C(O)c1ccccc1Br (some centres undefined): 21
10. CCCCCCCCCC/C=C/c1c(C)oc2c([C@H]3CCN(C)C[C@H]3O)c(O)cc(O)c2c1=O: 7
11. Cc1cc(=O)c2c(O)cc(O)c([C@H]3CCN(C)C[C@H]3O)c2o1: 15
12. CN1CC[C@H](c2c(O)cc(O)c3c(=O)cc(/C=C/c4c(F)c(F)c(F)c(F)c4F)oc23)[C@H](O)C1: 64
13. CN1CC[C@H](c2c(O)cc(O)c3c(=O)cc(/C=C/c4cccc(F)c4)oc23)[C@H](O)C1: 83
14. CCOc1ccc(Br)c(C(O)c2c(C)oc3c([C@H]4CCN(C)C[C@H]4O)c(O)cc(O)c3c2=O)c1 (some centres undefined): 9
15. Cc1cc(=O)c2c(O)c(CN3CCCC3C(=O)O)c(O)c([C@H]3CCN(C)C[C@H]3O)c2o1 (some centres undefined): 21
16. Cc1cc(=O)c2c(O)c(CN3CCC(c4ccccc4)CC3)c(O)c([C@H]3CCN(C)C[C@H]3O)c2o1: 23
17. Cc1oc2c([C@H]3CCN(C)C[C@H]3O)c(O)cc(O)c2c(=O)c1C(O)c1ccc([N+](=O)[O-])cc1 (some centres undefined): 4
18. CN1CC[C@H](c2c(O)cc(O)c3c(=O)cc(/C=C/c4ccccc4)oc23)[C@H](O)C1: 8
19. Cc1cc(=O)c2c(O)cc(OCc3ccc(Br)cc3)c([C@H]3CCN(C)C[C@H]3O)c2o1: 14
20. CN1CC[C@H](c2c(O)cc(O)c3c(=O)cc(/C=C/c4c(Cl)cccc4Cl)oc23)[C@H](O)C1: 80
21. Cc1cc(=O)c2c(O)c(CN3CCN(C)CC3)c(O)c([C@H]3CCN(C)C[C@H]3O)c2o1: 10
22. Cc1cc(=O)c2c(O)c(CN3CC(O)CC3C(=O)O)c(O)c([C@H]3CCN(C)C[C@H]3O)c2o1 (some centres undefined): 25
23. Cc1cc(=O)c2c(O)cc(OCc3ccccc3Br)c([C@H]3CCN(C)C[C@H]3O)c2o1: 45
24. Cc1cc(=O)c2c(O)cc(OCc3ccc([N+](=O)[O-])cc3)c([C@H]3CCN(C)C[C@H]3O)c2o1: 39
25. Cc1cc(=O)c2c(O)c(CN3CCCC3CO)c(O)c([C@H]3CCN(C)C[C@H]3O)c2o1 (some centres undefined): 22
26. CN1CC[C@H](c2c(O)cc(O)c3c(=O)cc(/C=C/c4ccccc4Cl)oc23)[C@H](O)C1: 63
27. Cc1cc(=O)c2c(O)c(CN3CCCC3)c(O)c([C@H]3CCN(C)C[C@H]3O)c2o1: 12
28. Cc1oc2c([C@H]3CCN(C)C[C@H]3O)c(O)cc(O)c2c(=O)c1C(O)c1csc([N+](=O)[O-])c1 (some centres undefined): 20
29. Cc1cc(=O)c2c(O)cc(OC/C=C/c3ccccc3)c([C@H]3CCN(C)C[C@H]3O)c2o1: 7
30. CN1CC[C@H](c2c(O)cc(O)c3c(=O)cc(/C=C/c4ccccc4F)oc23)[C@H](O)C1: 62
31. Cc1cc(=O)c2c(O)cc(OCc3ccco3)c([C@H]3CCN(C)C[C@H]3O)c2o1: 6
32. Cc1oc2c([C@H]3CCN(C)C[C@H]3O)c(O)cc(O)c2c(=O)c1C(O)c1c(F)cccc1Cl (some centres undefined): 41
33. Cc1cc(=O)c2c(O)c(CN3CCC(Cc4ccccc4)CC3)c(O)c([C@H]3CCN(C)C[C@H]3O)c2o1: 17
34. CCOC(=O)N1CCN(Cc2c(O)c([C@H]3CCN(C)C[C@H]3O)c3oc(C)cc(=O)c3c2O)CC1: 31
